Ref: PubChem BioAssay (NCATS)

Target: Cellular tumor antigen p53 (Homo sapiens) (UniProt P04637)
Sequence (P04637 whole entry, looked up): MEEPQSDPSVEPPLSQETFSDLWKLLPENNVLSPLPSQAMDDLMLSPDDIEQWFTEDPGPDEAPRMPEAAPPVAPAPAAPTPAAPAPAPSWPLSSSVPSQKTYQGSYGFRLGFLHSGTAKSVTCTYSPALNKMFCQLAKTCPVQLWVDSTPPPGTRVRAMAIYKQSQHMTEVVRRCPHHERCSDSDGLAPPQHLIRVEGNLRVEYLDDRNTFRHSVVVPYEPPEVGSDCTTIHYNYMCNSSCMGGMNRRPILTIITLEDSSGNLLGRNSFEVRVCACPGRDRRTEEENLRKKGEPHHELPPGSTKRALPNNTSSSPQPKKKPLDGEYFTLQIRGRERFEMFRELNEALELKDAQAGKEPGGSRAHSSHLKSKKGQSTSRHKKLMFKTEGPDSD
Test: Primary qHTS for small molecule compounds that upregulate eGFP-tagged delta133p53alpha (in C-terminal) cells. (AID 2060324);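 further: 0% = DMSO wells and 100% = 57.5 µM 5-azacytidine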
Conditions: NCI-H358 delta133p53alpha-eGFP (C-terminal tag), GFP fluorescence imaging, 24 h; series mostly up to 57.5 µM
Excerpt: Assay Development and Screening Technology National Center for Advancing Translational Sciences (NCATS), National Institute of Health (NIH), Rockville, Maryland Cellular senescence (CS) is one of the hallmarks of aging and age-related diseases. […] Here we report the development and validation of a cell-based quantitative high throughput screening (qHTS) assay in 1,536-well format. […]
Inconclusive results are not listed. The source made the active and inactive calls. The call rests on the fitted dose curve; in most records, active means well fitted activation curve with a large enough effect; inconclusive means small, poorly fitted or top-dose-only effect; inactive means flat fitted curve, though single readings scatter.
Use one of these outcomes when replying: active, inactive

Here are 6 molecules together with their reported answers.
| molecule | label |
| --- | --- |
| CC(C)=CCOc1c2occc2cc2ccc(=O)oc12 | inactive |
| CC(=O)NCCc1c[nH]c2ccccc12 | inactive |
| c1ccc(CCCN2CCN(CCOC(c3ccccc3)c3ccccc3)CC2)cc1 | inactive |
| CN1CCc2cc(O)cc3c2[C@H]1Cc1ccc(O)c(O)c1-3 | inactive |
| C[C@H](Cc1ccc2c(c1)OC(C(=O)O)(C(=O)O)O2)NC[C@H](O)c1cccc(Cl)c1 | inactive |
| NC(N)=NOCCC(N)C(=O)O (stereo not given) | inactive |

Asked: Each molecule tested received a call. Report the one for C#CCOC(=O)C1=CCCN(C)C1 .
Given back: inactive

---

Assay: BET inhibitor-based combinations targeting novel dependencies in MECOM-rearranged (r) AML: AML-191 cell line (AID 2202236; further: nearly all actives have a fitted effect of over 35% in size)
Details: AML-191 viability, CellTiter-Glo luminescence, 48 h; series mostly up to 46 µM
Results filed as inconclusive are left out. Active and inactive are the calls of the source. Calls follow the shape of the dose curve; as a rule, active = well fitted inhibition curve with a large enough effect; inconclusive = small, poorly fitted or top-dose-only effect; inactive = flat fitted curve, though single readings scatter.
Use one of these outcomes when replying: 1.0 = active, 0.0 = inactive

Here are 9 compounds together with their reported answers.
| compound | label |
| --- | --- |
| Clc1ccccc1C(c1ccccc1)(c1ccccc1)n1cccn1 | 0.0 |
| CC(C)C[C@H](CN)CC(=O)O | 0.0 |
| CC(C)(O)/C=C\C(=O)[C@](C)(O)[C@H]1[C@H](O)C[C@]2(C)[C@@H]3CC=C4[C@@H](C=C(O)C(=O)C4(C)C)[C@]3(C)C(=O)C[C@@]12C | 1.0 |
| COc1cc(C)[nH]c(=O)c1CNC(=O)c1c(C)n([C@H](C)C2CCN(CC(F)(F)F)CC2)c2ccccc12 | 0.0 |
| Fc1ccc(C(OCCN2CCN(CCCc3ccccc3)CC2)c2ccc(F)cc2)cc1 | 1.0 |
| Cc1ncc(OC[C@@]2(c3cccc(F)c3)C[C@H]2C(=O)Nc2ccc(F)cn2)c(C)n1 | 0.0 |
| COc1cc2c(cc1F)C(c1ccccc1Cl)=Nc1c(n[nH]c1C)N2 | 1.0 |
| CCc1c(C(=O)C(N)=O)c2c(OCC(=O)O)cccc2n1Cc1ccccc1 | 0.0 |
| O=C(O)C(=O)c1cn(Cc2ccccc2)c2ccc(-c3ccc(OC(F)(F)F)cc3)cc12 | 0.0 |

Lab note: next compound to report on.
Asked: Each compound tested received a call. Report the one for O=P1(NCCCl)OCCCN1CCCl (stereo not given) .
Given back: 0.0

---

Assay: BET inhibitor-based combinations targeting novel dependencies in MECOM-rearranged (r) AML: AML-191 cell line (AID 2202236)
Conditions: AML-191 viability, CellTiter-Glo luminescence, 48 h; series mostly up to 46 µM
Records with an inconclusive call do not appear. Active and inactive are the calls of the source. Calls come from the whole dose curve; as a rule, active = well fitted inhibition curve with a large enough effect; inconclusive = small, poorly fitted or top-dose-only effect; inactive = flat fitted curve, though single readings scatter.
Use one of these outcomes when replying: active, inactive

Asked: Each molecule tested received a call. Report the one for COc1cc(C(=O)N2CC[C@@H](O)[C@@H](N)C2)cc2nc(-c3cc4ccccc4n3CC3CC3)n(C)c12 .
Given back: inactive
